B1: TPR 5TU (parent)
chain: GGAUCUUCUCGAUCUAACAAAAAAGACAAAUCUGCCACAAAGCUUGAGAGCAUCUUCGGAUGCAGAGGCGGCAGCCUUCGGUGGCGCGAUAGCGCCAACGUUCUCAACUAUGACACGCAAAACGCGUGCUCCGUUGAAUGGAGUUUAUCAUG

variants of: B1; experiment: polymerase ribozyme fitness, log enrichment relative to wild type (log ratio); higher = more active; in vitro selection for triplet polymerase activity
Variants at the floor of the assay were thinned out.
quantity kind: polymerase ribozyme fitness (log ratio)
Number only, please.

Form field: reported polymerase ribozyme fitness (log ratio) of A17C C76U G92U C129A -3.05

Same question for A89G C93A please. -3.94

Same question for U4C C5G U55A C75A G88C G133U please. -4.17

More entries:
Form field: reported polymerase ribozyme fitness (log ratio) of C85A A142U -1.59
